Recorded GI50, one value per entry.
# System: ACHN
# Assay Comment: NCI tumour cell line growth inhibition, 48 h
The source made the active and inactive calls. Cut-off read from the data, not from the text of the source: active = GI50 up to about 1.1 µM and inactive = higher.

| Compound | GI50 |
| --- | --- |
| CCN(c1ccccc1)[C@H]1C(=O)N(c2ccc([N+](=O)[O-])cc2)[C@H]1c1ccc(OC)cc1 | > 100 µM (inactive) |

Param item = C[Si](C)(C)OC1(C#N)C2C3CC4C2C(=O)C2C4C3C21 (stereo not drawn) ; retrieve measured GI50.
> 100 µM (inactive)

Fill in the blank: the reported GI50 of NCCCC(N)C(=O)O (stereo not drawn) is ____.
> 100 µM (inactive)

So what does the record say about GI50 for Cc1cc2nc(N)n[n+]([O-])c2cc1C ?
> 100 µM (inactive)

Which GI50 is reported for this compound? NC1=NN(c2ccccc2)C(=O)C1/C(=N\NC(=O)c1cc2ccccc2cc1O)C(=O)Nc1cccc(C(F)(F)F)c1 (stereo not drawn)
30.1 µM (inactive)

Would you kindly share the measured GI50 for O=C(O)CCC1CCc2cccc(O)c2C1=O (stereo not drawn) ?
> 100 µM (inactive)

###

# Test system: MDA-N
# Assay Comment: NCI tumour cell line growth inhibition, 48 h
Calls of active or inactive are those of the source. Cut-off read from the data, not from the text of the source: active = GI50 up to about 1.1 µM and inactive = higher.
Measurement Name: GI50

Consider the worked cases shown below.
| Smiles Entry | GI50 |
| --- | --- |
| Oc1ccc[nH]c1=[Se] | 57 µM (inactive) |
| COc1cc2c(cc1OCCN1C(=O)c3cccc4cccc(c34)C1=O)N=C[C@@H]1CCCN1C2=O | 8.02 µM (inactive) |
| COC(=O)Nc1nc2cc(NS(=O)(=O)c3cccs3)ccc2[nH]1 | 3.56 µM (inactive) |

Next compound, GI50 to be filled in.
Would you mind telling me what GI50 value was observed for Cc1ccc(C)c(NC(=O)NCc2ccc(Cl)cc2)c1 ?
> 100 µM (inactive)

###

# GI50 per record follows
# System: SK-MEL-2
# Assay Comment: NCI tumour cell line growth inhibition, 48 h
The source made the active and inactive calls. No stated cut-off is given here; in the data, active = GI50 up to about 1.1 µM and inactive = higher.

Solved cases below.
| Compound | GI50 |
| --- | --- |
| NC1=NN(c2ccccc2)C(=O)C1/C(=N\NC(=O)c1cc2ccccc2cc1O)C(=O)Nc1cccc(C(F)(F)F)c1 (configuration not stated) | 22.4 µM (inactive) |
| CCCCn1c2c(c3ccccc3c1=O)C(=O)c1ccccc1-2 | > 100 µM (inactive) |
| COC(=O)Nc1nc2cc(NS(=O)(=O)c3cccs3)ccc2[nH]1 | 76.6 µM (inactive) |
| O=[N+]([O-])c1ccc(OCCNc2cccc3ccccc23)cc1 | > 100 µM (inactive) |
| Cc1cccc(-n2c(C)nc3ccc(NC(=S)Nc4ccccc4)cc3c2=O)c1 | 39 µM (inactive) |
| COc1cc(S(=O)(=O)Nc2ccc(-c3csc(N4C(=O)C(C)SC4c4cccs4)n3)cc2)ccc1Cl (configuration not stated) | 6.49 µM (inactive) |

Next item in the queue.
Item under review: CC(C)C(=O)/C=C/c1ccc(Cl)cc1 . Reported GI50?
19.4 µM (inactive)

###

# Test system: SK-MEL-5
# Assay Comment: NCI tumour cell line growth inhibition, 48 h
Activity calls are given as the source filed them. Rule as the data show it: active = GI50 up to about 1.1 µM and inactive = higher.
Respond only with the outcome that fits, drawn from active, inactive

Below, 5 molecules whose answers are already recorded.
| Molecule | Group Label |
| --- | --- |
| CC(=O)[C@@H](C)C(=O)N1C(=O)OC[C@@]12[C@@H]1CC[C@@H](C1)C2(C)C | inactive |
| Cc1cn(C2CCC(/C=N\O)O2)c(=O)[nH]c1=O (stereo not drawn) | inactive |
| CC(=O)OCC(OC(C)=O)C(OC(C)=O)C(/C=N/N(C(C)=O)S(=O)(=O)c1ccc(/C=C2\NC(=O)NC2=O)cc1)OC(C)=O (stereo not drawn) | inactive |
| O=S(=O)(c1ccccc1)N1CCCC(c2ccccc2)CC1 (stereo not drawn) | inactive |
| Cc1ccnc(NS(=O)(=O)c2ccc(NC3=CC(=O)C(=O)c4ccccc43)cc2)n1 | inactive |

Field: outcome | Entry: COC(=O)C(CC(=O)Nc1ccc(C)cc1)C(=O)C(=O)Nc1ccccc1C(C)C (stereo not drawn)
inactive

###

# GI50 annotations
# System: SNB-78
# Assay Comment: NCI tumour cell line growth inhibition, 48 h
Active and inactive are the calls of the source. Rule as the data show it: active = GI50 up to about 1.1 µM and inactive = higher.

Value lookup for GI50; key = CC(=O)OC1CC2C(C)(C)C(=O)C=C[C@]2(C)C2CCC3(C)C(c4ccoc4)C(=O)[C@H]4O[C@]43[C@]12C (some centres undefined)
57.8 µM (inactive)

For CC(C)CCC[C@@H](C)C1CCC2[C@@H]3CC=C4C[C@@H](C(=O)NCCN(C)C)CC[C@]4(C)C3CC[C@@]21C (some centres undefined) , what is its reported GI50?
> 100 µM (inactive)

Find the recorded GI50 belonging to Cc1cc(O)nc(CNC(=O)Cc2ccccc2)n1 and report it.
> 100 µM (inactive)

Quick one: GI50 of CC(=O)NNc1nc(C)c(C(=O)NNC(=O)C(=O)Nc2ccccc2C#N)s1 ?
> 100 µM (inactive)

I have this molecule here, NC(=O)CCC(NCc1c2ccccc2[n+]([O-])c2ccccc12)C(=O)O (centres undefined) , and I need its recorded GI50.
> 100 µM (inactive)

What does the record list as GI50 for CCCC(OCC)(OCC)OCC ?
> 100 µM (inactive)

Which GI50 reading was recorded for the molecule Cn1cnc([N+](=O)[O-])c1Sc1nccn1-c1ccccc1 ?
26.3 µM (inactive)

Sample COc1ccc(C(CCC(C)=O)C(=O)O)cc1OC (centres undefined) — what was its GI50?
> 100 µM (inactive)

Tell me the measured GI50 of Cc1c2cnccc2c(C)c2c1c1ccccc1n2CC1CO1 (centres undefined) , please.
1.83 µM (inactive)

Need GI50, item COc1cc(-c2ccc(NC(=O)SCCC(=O)O)cc2OC)ccc1NC(=O)SCCC(=O)O
> 100 µM (inactive)

Please report the recorded GI50 for COc1ccc(NC(=O)C(=O)C2NC(=S)NC2=O)c(OC)c1 (centres undefined) .
> 100 µM (inactive)

Recorded GI50 for CC1=COC(=O)c2ccccc2N1 , please?
> 100 µM (inactive)

# lookup: GI50 of COc1ccc(-c2cc(-c3cc(C)ccc3O)nc(O)n2)cc1
43.7 µM (inactive)

Need GI50 of O=C(N/N=C/c1cccc(O)c1O)N/N=C/c1cccc(O)c1O , thanks.
34.8 µM (inactive)

###

Each entry below carries its recorded GI50.
# Test system: HOP-92
# Assay Comment: NCI tumour cell line growth inhibition, 48 h
Activity calls are given as the source filed them. No stated cut-off is given here; in the data, active = GI50 up to about 1.1 µM and inactive = higher.

Examples with answers:
| Molecule | Reported Measurement |
| --- | --- |
| NC(=S)N/N=C1\C(=O)C=C(Nc2ccc(Cl)cc2Cl)c2ccccc21 | 15.8 µM (inactive) |
| Brc1ccc2c(-c3nc(-c4c[nH]c5ccccc45)cs3)c[nH]c2c1 | 43.1 µM (inactive) |
| COC(=O)C1(C(=O)OC)N=C(C)OC1C(C)C (configuration not stated) | > 100 µM (inactive) |
| CC(=O)c1ccc2c(ccc(=O)n2C)c1 | > 100 µM (inactive) |
| O=C(O)CN1CCN(CC(=O)N2CCN(C(=O)OCc3ccccc3)CC2)CCN(CC(=O)O)CCN(CC(=O)N2CCN(C(=O)OCc3ccccc3)CC2)CC1 | > 100 µM (inactive) |
| Clc1cc(Cc2cc(Cl)c(Cl)c3c2OCOC3)c2c(c1Cl)COCO2 | 16.9 µM (inactive) |

For the molecule shown here, Cc1cc2c(cc1C(=O)c1ccc(N)cc1)OCO2 , give the reported GI50.
33.2 µM (inactive)

###

# Tested on: A498
# Assay Comment: NCI tumour cell line growth inhibition, 48 h
The source made the active and inactive calls. Rule as the data show it: active = GI50 up to about 1.1 µM and inactive = higher.
Catalogue of GI50 readings, one per entry.

Some entries whose results are on file:
| Compound | GI50 |
| --- | --- |
| CC(C)(C)C1CCC(=O)C(C(O)CC2CC(=O)N(c3ccccc3)C(=O)C2)C1 (stereo not drawn) | > 100 µM (inactive) |
| O=C(NC1CCN(Cc2ccccc2)CC1)c1cccc(I)c1 | 46.6 µM (inactive) |
| CCCC(OCC)(OCC)OCC | > 100 µM (inactive) |
| O=C1NC(=S)NC(=O)C1C(c1ccc([N+](=O)[O-])cc1)C1C(=O)NC(=S)NC1=O.c1ccncc1 | > 100 µM (inactive) |
| NS(=O)(=O)c1nnc(NS(=O)(=O)c2ccc([N+](=O)[O-])cc2)s1 | > 100 µM (inactive) |

Please report the recorded GI50 for O=C1C2C3CC4C5C3C1C5C1(SCCS1)C42 (stereo not drawn) .
> 100 µM (inactive)

// query GI50 value for entry COc1cc2c[n+](C)c3c4cc(OC)c(OCc5ccccc5)cc4c(OCc4ccccc4)cc3c2cc1OC
48 µM (inactive)

Reported GI50 for CC(=O)c1ccc2c(ccc(=O)n2C)c1 : what is it?
> 100 µM (inactive)

Data credit: ChEMBL document CHEMBL1201862
